system: TNF-α secretion from RAW264.7 cells; test: Inhibition of TNF-α secretion from RAW264.7 cells stimulated with CpG-ODN (ELISA); type: cell-based, murine; details: 7.1 μM peptide; CpG stimulation, 1.25 ug/ml CpG-ODN
Label MET when Percent Inhibition of TNF-α secretion is at or above 70%; anything below gets NOT MET.

Query string: Form field: Percent Inhibition of TNF-α secretion at least 70%? Entry: DIIKLTVYDCIRRRRRRRRR [T36-R^9]
Result string: NOT MET

Query string: Quick check, Percent Inhibition of TNF-α secretion >= 70%? AIVKLTVYDCIRRRRRRRRR [T3-R^9]
Result string: MET

Query string: For this sequence, is measured Percent Inhibition of TNF-α secretion 70% or higher? AIIKVYVYACIRRRRRRRRR [T52-R^9]
Result string: MET

Query string: Hi, just wondering whether DIVKVTVYDCIRRRRRRRRR [T37-R^9] shows Percent Inhibition of TNF-α secretion of 70% or higher.
Result string: NOT MET

Query string: State whether the measured Percent Inhibition of TNF-α secretion reaches 70%, counting equality as reaching it, for DIVKLTVYDCIRRRRRRRRR [P13-R^9]
Result string: NOT MET

Lab note: next sequence to report on.
Query string: Dear colleague, could you confirm whether AIVKLTVYACIRRRRRRRRR [T51-R^9] has Percent Inhibition of TNF-α secretion at or above 70%?
Result string: MET

* * *

system: TNF-α secretion from RAW264.7 cells; assay: Inhibition of TNF-α secretion from RAW264.7 cells stimulated with CpG-ODN (ELISA); assay type: cell-based, murine; conditions: 11.1 μM peptide; CpG stimulation, 1.25 ug/ml CpG-ODN
Labelling: Percent Inhibition of TNF-α secretion reported below 90% becomes satisfied; at or above becomes not satisfied.

Query string: Field: below-cutoff. Rule: recorded Percent Inhibition of TNF-α secretion strictly less than 90%. Subject: DIVKLTVYDCIRRRRRRRRR [P13-R^9]
Result string: satisfied

Query string: Percent Inhibition of TNF-α secretion strictly < 90% for this sequence? DIVKVTVYDCIRRRRRRRRR [T37-R^9]
Result string: satisfied

***
Query string: Here's an entry: DIIKLTVYDCIRRRRRRRRR [T36-R^9] . Is its Percent Inhibition of TNF-α secretion below 90%?
Result string: satisfied

Query string: Is the reported Percent Inhibition of TNF-α secretion for AIIKVYVYACIRRRRRRRRR [T52-R^9] strictly below 90%?
Result string: not satisfied

Query string: Consider AIVKLTVYACIRRRRRRRRR [T51-R^9] . Does its Percent Inhibition of TNF-α secretion lie strictly below 90%?
Result string: not satisfied
